Assign IC50 to each entry below.
- test system: Collagenase 3 (MMP13) (Homo sapiens)
- Construct: made in house
- experiment notes: Collagenase 3 (MMP13) enzyme inhibition, fluorogenic peptide substrate
- Format: biochemical
- measurement conditions: recombinant human proMMP13 activated with APMA; 4-5 hours at 35° C., pH 7.5; fluorescence λex 328 nm, λem 393 nm; read-out: IC50 (nM), collagenase 3 (MMP13) inhibitory activity
Give bare numbers, in nM.

Fill in IC50 for each of the 2 compounds listed.
1. O=CN(O)C(CS(=O)(=O)N1CCN(c2ccc(OC(F)(F)C(F)F)cc2)CC1)c1ccccc1 (stereo not shown)
2. O=CN(O)C(CS(=O)(=O)N1CCN(c2ccc(OCC(F)(F)F)cc2)CC1)C1CCOCC1 (stereo not shown)

3.6
4

Fill in IC50 for each of the 2 compounds listed.
1. O=CN(O)C(CCc1ncc(F)cn1)CS(=O)(=O)N1CCN(c2ccc(OC(F)(F)C(F)F)cc2)CC1 (stereo not shown)
2. O=CN(O)C(CCCc1ncccn1)CS(=O)(=O)N1CCN(c2ccc(OC(F)(F)C(F)F)cc2)CC1 (stereo not shown)

1. 0.19
2. 0.12

---

- test system: Collagenase 3 (MMP13) (Homo sapiens, UniProt P45452)
- Construct: made in house
- experiment notes: Collagenase 3 (MMP13) enzyme inhibition, fluorogenic peptide substrate
- Assay type: biochemical
- measurement conditions: recombinant human proMMP13 activated with APMA; 4-5 hours at 35° C., pH 7.5; fluorescence λex 328 nm, λem 393 nm; read-out: IC50 (nM), collagenase 3 (MMP13) inhibitory activity
Assign IC50 to each entry below.
One number for each entry, in nM.

compound	unit descriptor	value measured
O=CN(O)C(CS(=O)(=O)N1CCN(c2ncc(OCC(F)(F)F)cn2)CC1)C1CCOCC1 (stereo not shown)	nM	13
CCC(CS(=O)(=O)N1CCN(c2ccc(OC(F)(F)C(F)F)cc2)CC1)N(O)C=O (racemic)	nM	2.8
O=CN(O)C(CCc1ncc(F)cn1)CS(=O)(=O)N1CCN(c2ccc(OCC(F)(F)F)cn2)CC1 (stereo not shown)	nM	0.24

Kindly review the next compound as well.
I would be grateful if you could share the reported IC50 for O=CN(O)C(CCc1ncccn1)CS(=O)(=O)N1CCN(c2ccc(OCC(F)(F)F)cc2)CC1 (stereo not shown) .
1.5

Ref: patent US7485644B2
